Measured growth of individual entries
test system: NCI-H522 lung; test: NCI-60 one-dose screen, 48 h (100 = growth as untreated, 0 = no growth, -100 = all killed); conditions: 10 µM unless noted
This is part of a sample that, as a whole, favours compounds with a hit. Of some 83,000 tested, about 20% had one in any assay.
RECORDED_ENDPOINT: growth (%)

COMPOUND	VALUE_OBSERVED
C#Cc1nc(C2=C(C)C(O)CC2)cs1 (stereo not drawn)	97.2
COc1ccc(-c2nn3c(-c4ccccc4F)nnc3s2)cc1	20.2
O=C1Nc2ccccc2Oc2ccc(S(=O)(=O)CC3CO3)cc21 (stereo not drawn)	32.8
Cc1nc(-c2cc3ccccc3oc2=O)ccc1C(=O)/C=C/c1ccc(N2CCOCC2)cc1	61.4
COc1ccc(/C=N/NC(=O)c2[nH]c3ccc(Br)cc3c2-c2ccccc2)s1	-30.1
CC(O)C(NC(=O)C1CCCN1C(=O)CNC(=O)C1CC(=O)NCC(=O)NC(Cc2c[nH]c3ccccc23)C(=O)NC(Cc2ccc(O)cc2)C(=O)NCC(=O)NC(CO)C(=O)NC(CCC(N)=O)C(=O)NC(Cc2c[nH]c3ccccc23)C(=O)N1)C(=O)NCC(=O)NC(CCC(N)=O)C(=O)NC(CCCNC(=N)N)C(=O)NC(CC(=O)O)C(=O)O (stereo not drawn)	94.9
C#Cc1nc(C2=C(C)C(=N\O)/C(=N/O)C2)cs1	91.8
Cn1c(SCC(=O)c2cccs2)nc2ccccc2c1=O	87.8
